Hey, just so you know, these numbers are from the Biogen ADME set (Fang et al. 2023).

Binning rule for recorded intrinsic clearance, human liver microsomes: low = under 20 mL/min/kg, medium = from 20 mL/min/kg up to 70 mL/min/kg, high = 70 mL/min/kg and over

NCCCc1nc(-c2ccncc2)cs1: medium
CS(=O)(=O)NC[C@H]1CC[C@H](Nc2nc3c(s2)CCSc2ccccc2-3)CC1: medium
Cn1cc(NC(=O)c2cn(Cc3ccccc3)nn2)cn1: low
Cc1cc(Nc2nnc(C)s2)cc(C2CN(C(=O)Cc3csc(C)n3)CCO2)n1 (stereo unspecified): low
CO[C@@H]1CC[C@@H](N(C)C(=O)COc2c(C)cccc2C)[C@H]1O: low
O=C(COc1ncnc2ccccc12)NC12CC3CC(CC(C3)C1)C2: medium
Cc1nc(NC2(c3cccc(Cl)c3)CC2)c2c(C)noc2n1: low
Cn1c(=O)n(-c2ccc(C(C)(C)C#N)cc2)c2c3cc(-c4cnc5ccccc5c4)ccc3ncc21: medium
CC1(C)[C@@H]2C[C@H]1[C@@]1(O)[C@@H](C2)Oc2c(ccc(O)c2C(=O)NCCNc2ccccn2)[C@@H]1O: high
CC(=O)c1ccccc1-c1cccc(C(=O)NCCCN2CCCC2)c1: low

**Query** In plain terms, what class is NC(=O)CN1CCC(Oc2cccc(F)c2)CC1 ?
**Result** low

**Query** In plain terms, what class is CC(C)NC(=O)C1(Cc2ccccc2-c2ccncc2)CCOCC1 ?
**Result** high

**Query** In plain terms, what class is Cc1ccc(S(=O)(=O)N2CCCc3ccc(NS(=O)(=O)c4cc(F)ccc4F)cc32)cc1 ?
**Result** high

###

MEASURE: MDR1-MDCK efflux ratio
Numbers only.

Please report MDR1-MDCK efflux ratio for every entry that follows.
1. CSc1ncccc1C(=O)Nc1ccc(N2CCCCC2=O)cc1
2. Cn1ccc(NC(=O)[C@H]2CCCCN2C(=O)OC(C)(C)C)n1
3. CC#CCCNC(=O)c1cccnc1C
4. CC(C)CCn1ccc(NC2CCN(C(C)C)CC2)n1
5. Cc1cc(CN2CCC(N(C)c3ncc(Cl)cn3)CC2)on1

**Result**
1: 8.14; 2: 2.54; 3: 0.755; 4: 3.58; 5: 0.58

Please report MDR1-MDCK efflux ratio for every entry that follows.
1. CNC(=O)c1ccc(CN(C)c2c(F)cc(C#N)cc2F)cc1
2. Cc1cc(OCC(=O)N(C)C2CCCCCCC2)no1
3. N#Cc1c(O)nc(SCc2cccc(F)c2F)nc1C1CC1
4. O=C(CC1CCCC1)NCc1nnc2n1CCC2

**Result**
0.595
0.765
0.817
51.7

###

Give measured fraction unbound, rat plasma for each item. Keep answers brief.
Give bare numbers.

// worked examples, fraction unbound, rat plasma included
CC(C)(O)CCn1cc2cc(NC(=O)c3cccc(C(F)(F)F)n3)c(C(C)(C)O)cc2n1: 0.124
CC(C)NC(=O)COc1cccc(-c2nc(Nc3ccc4[nH]ncc4c3)c3ccccc3n2)c1: 0.00313
CNC(=O)C1(Cc2ccc(-c3ccncc3)cc2)CCN(Cc2cccc(F)c2)C1 (centres undefined): 0.0519

Please report fraction unbound, rat plasma for every entry that follows.
1. O=C(Nc1nc2cccc(-c3ccc(CN4CCS(=O)(=O)CC4)cc3)n2n1)C1CC1
2. O=C(NC1CCNCC1)c1ccc2cn[nH]c2c1
3. NCCN1CCN(C/C=C/C(=O)N2CCC[C@@H](n3nc(-c4ccc(Oc5ccccc5)cc4)c4c(N)ncnc43)C2)CC1
4. COc1ccc([C@H]2c3[nH]c4ccc(Cl)cc4c3CCN2C(=O)Oc2ccc(Cl)cc2)cc1
5. CCOc1cc2nn(CCC(C)(C)O)cc2cc1NC(=O)c1cccc(C(F)F)n1

**Result**
[0.4, 0.511, 0.0486, 0.568, 0.0186]

Please report fraction unbound, rat plasma for every entry that follows.
1. O=C(Nc1cccc2c(=O)cc(-c3nnn[nH]3)oc12)c1ccc(OCCCCc2ccccc2)cc1
2. NC(=O)C1(Cc2ccc(-c3ccncc3)cc2)CCN(C(=O)Cc2cccc(F)c2)CC1
3. [2H]C([2H])([2H])NC(=O)c1nnc(NC(=O)C2CC2)cc1Nc1cccc(-c2ncn(C)n2)c1OC
4. Cc1ncsc1C(=O)N1CCCCC1c1nc(N(C)C)ncc1-c1cccc(Cl)c1 (centres undefined)

**Result**
[0.0592, 0.114, 0.172, 0.0105]
